Below is a list of entries, each paired with its recorded %Inh value.
test system: AKT3; conditions: concentration: 1 μM, replicates: in singlicate; n = 1;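 also: KINOMEscan kinase panel screen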

Answered cases to consult:
Cc1c(Cn2c(C)nn3c(=O)cc(N4CCOC(C)C4)nc23)cccc1C(F)(F)F (stereo not drawn) | 0%
Fc1ccc(-c2nn3c(OCC(F)(F)F)cccc3c2-c2ccncc2)cc1 | 0%
CC(C)Oc1ccc2c(-c3ccnc(Nc4ccc(N5CCN(C)CC5)cc4)n3)cnn2n1 | 0%

In: Give me measured %Inh, please, for this compound: [2H]C([2H])(c1cccc(C(F)(F)F)c1C)n1ccn2c(=O)nc(N3CCOCC3)cc12
Out: 0%

In: # return recorded %Inh for input NS(=O)(=O)c1cccc(-c2ccc3nccc(-c4cccc(S(N)(=O)=O)c4)c3c2)c1
Out: 10%

In: # return recorded %Inh for input O=C(Nc1cccc(-c2nn3ncccc3c2-c2ccnc(Nc3cccc(C(F)(F)F)c3)n2)c1)c1c(F)cccc1F
Out: 0%

In: Report %Inh, nothing else, for this compound: COc1ccc(Nc2nccc(N3CCC(NC(=O)Nc4cc(C)ccc4C)C3)n2)cc1 (stereo not drawn)
Out: 0%

----------
tested on: ZAP70; conditions: concentration: 1 μM, replicates: in singlicate; n = 1
Listing of recorded %Inh by entry.
Expressed in %, but write only the number.

COc1ccc(S(=O)(=O)NC2CCN(c3cc(C)nc(Nc4cccc(C#N)c4)n3)CC2)cc1.O=C(O)C(F)(F)F [GSK1653539] | 0
Cc1cccc(-c2nc(-c3ccc(S(C)(=O)=O)cc3)sc2-c2ccncc2)c1 | 0
O=c1cc(N2CCOCC2)nc2n(Cc3cccc(Cl)c3Cl)c(C3CC3)nn12 [GSK2358994] | 10
Nc1nccc(-c2c(-c3ccc(F)cc3)ncn2C2CCN(CC(F)(F)F)CC2)n1 [SB-236560] | 49
Cn1ccc2ncnc(Oc3ccc(NC(=O)Nc4ccncc4)c(Cl)c3)c21 | 7

In: Dear colleague, please send me the reported %Inh for NCC(NC(=O)c1cc(-c2cn[nH]c2)c(-c2ccnc3[nH]ccc23)s1)c1ccccc1.O=C(O)C(F)(F)F.O=C(O)C(F)(F)F (stereo not drawn) [GSK1325775] when you can.
Out: 0

----------
As shown below, each of these compounds has a reported %Inh value.
test system: IRAK3; conditions: concentration: 1 μM, replicates: in singlicate; n = 1
Report the figure in % without appending any unit label.

Example entries begin here.
O=C1Cc2cc(Nc3nc(NCc4cccc(S(=O)(=O)C(F)(F)F)c4)ncc3C(F)(F)F)ccc2N1 | 0
CCc1ccnc(/C=C/c2n[nH]c3cc(Sc4ccccc4C(=O)NC)ccc23)c1 | 32
O=C1NC(=O)C(N2CCc3ccccc32)=C1c1cccc(Cl)c1 [SB-408010] | 0
Fc1ccc(-c2ncn(CCCN3CCOCC3)c2-c2ccccn2)cc1 [SB-211742] | 1
COc1cc2ncn(-c3cc(OCc4sccc4Cl)c(C(N)=O)s3)c2cc1OC [GSK448459] | 0

In: Please report the measured %Inh for Nc1nccc(-c2c(-c3ccc(F)cc3)ncn2C2CCN(CC(F)(F)F)CC2)n1 [SB-236560]
Out: 0

In: Dear colleague, please send me the reported %Inh for Cc1c2ccc(N(C)c3ccnc(Nc4cccc(S(N)(=O)=O)c4)n3)cc2nn1Cc1ccccc1.Cl.Cl [GW787226] when you can.
Out: 36

In: For the compound NS(=O)(=O)c1cccc(-c2ccc3ncc(N4CCOCC4)nc3c2)c1 [GSK1535721] , give its measured %Inh value.
Out: 0

In: Recall and state the measured %Inh for COc1ccc(COc2cc(-n3cnc4ccccc43)sc2C(N)=O)cc1 [GSK1024304] .
Out: 2

In: Identify measured %Inh corresponding to Cl.Oc1cccc(Nc2ccnc3cc(-c4ccncc4)ccc23)c1 [GW494601]
Out: 57

In: Look up and report measured %Inh for this entry: Cc1nnc(-c2ccc(C)c(-c3ccc(C(=O)Nc4ccc(NS(C)(=O)=O)cc4)cc3)c2)o1 [GW702865]
Out: 0

In: Please report the measured %Inh for NS(=O)(=O)c1cccc(-c2ccc3nccc(-c4cccc(S(N)(=O)=O)c4)c3c2)c1 [GW867253]
Out: 0

----------
system: MKNK1; conditions: concentration: 1 μM, replicates: in singlicate; n = 1
Item-by-item account of %Inh
Reply with just the number (in %).

Some compounds with recorded %Inh:
c1ccc(-c2n[nH]cc2-c2ccnc3ccccc23)nc1 | 6
[2H]C([2H])(c1cccc(C(F)(F)F)c1C)n1ccn2c(=O)nc(N3CCOCC3)cc12 | 3
CN(C1=C(c2ccccc2)C(=O)NC1=O)c1ccccc1 | 5
Cn1cc(-c2ccc3c(c2)CCN3C(=O)Cc2ccccc2Cl)c2c(N)ncnc21 | 7
Cc1cccc(-c2nc(-c3ccc(S(C)(=O)=O)cc3)sc2-c2ccncc2)c1 | 0
c1ccc(-c2cc(-c3c[nH]nc3-c3ccccn3)ccn2)cc1 | 5

In: For MKNK1, give %Inh of the listed compound: NS(=O)(=O)CCc1cccc(Nc2nccc(-c3c(-c4cccc(NC(=O)c5c(F)cccc5F)c4)nn4ccccc34)n2)c1
Out: 0

In: Recall the reported %Inh of O=C(NCCNc1ccnc(Nc2ccc(F)cc2)n1)Nc1ccccc1F when tested on MKNK1.
Out: 0

In: Recall the reported %Inh of CSc1ccc(-c2cc3ncnc(SCC(=O)O)c3s2)cc1 when tested on MKNK1.
Out: 0

----------
test system: LOK; construct: gene STK10; details: concentration: 1 μM, replicates: in singlicate; n = 1
measurement name: %Inh (%)
The figure you give is taken to be in %; do not add the unit.

Illustrative cases are given below, each with its answer.
C[C@@H](Oc1cc(-n2cnc3ccc(NC(=O)NC(C)(C)C)cc32)sc1C(N)=O)c1ccccc1Cl | 36
CN(C1=C(c2ccccc2)C(=O)NC1=O)c1ccccc1 | 1
Cc1ccc(C(=O)NCC(N)=O)cc1-n1c(C)cc(OCc2ccc(F)cc2F)c(Br)c1=O | 26

In: Indicate the recorded %Inh value for this compound: [2H]C([2H])(c1cccc(C(F)(F)F)c1C)n1ccn2c(=O)nc(N3CCOCC3)cc12
Out: 0

In: Read the entry COc1ccc(Nc2nccc(N3CCC(NC(=O)Nc4cccc(C(C)=O)c4)C3)n2)cc1 (stereo not shown) and write its reported %Inh.
Out: 0

In: Look up and state reported %Inh for COCCNC(=O)c1ccc(-c2cc(C(=O)NC3CC3)cc(F)c2C)cc1
Out: 20

In: Give the measured %Inh for COc1cc2c(cc1OCCN1CCN(C)CC1)ncc1c3ccc(C#N)cc3[nH]c21
Out: 33

In: Read the entry O=C(NCCNc1ccnc(Nc2ccc(F)cc2)n1)c1cc2ccccc2s1 and write its reported %Inh.
Out: 0

In: Give reported %Inh value for COc1cc(Nc2nccc(N3CCC(NC(=O)c4cccc(NC(C)=O)c4)C3)n2)cc(OC)c1OC (stereo not shown)
Out: 0

In: Answer with the recorded %Inh of Cc1cccc(Cn2ccn3c(=O)cc(N4CCOCC4)nc23)c1 only.
Out: 0

----------
Entries and their %Inh
tested on: DDR2; settings: concentration: 1 μM, replicates: in singlicate; n = 1
Supply the numeric figure in %, leaving out any unit text.

O=C1Cc2cc(Nc3nc(NCc4cccc(S(=O)(=O)C(F)(F)F)c4)ncc3C(F)(F)F)ccc2N1 | 11
COc1cc2c(cc1OCCN1CCN(C)CC1)ncc1c3ccc(C#N)cc3[nH]c21 | 8
Cc1ccc(NC(=O)c2ccnc(N3CCN(C)CC3)c2)cc1-c1ccc(C(=O)NCC2CC2)cc1 [GW775604] | 59
COc1cc2c(cc1OC[C@@H](O)CO)ncc1c3ccc(C#N)cc3[nH]c21 | 0
Cc1nnc(-c2ccc(C)c(-c3ccc(C(=O)Nc4ccc(NS(C)(=O)=O)cc4)cc3)c2)o1 [GW702865] | 46
Cc1cccc(Cn2ccn3c(=O)cc(N4CCOCC4)nc23)c1 [GSK2297542] | 6
COc1ccc(Nc2ncc(C#N)c(Nc3ccccc3C(N)=O)n2)cc1N1CCN(C)CC1.Cl [GSK1558669] | 94.2

Turning to the following compound.
In: State its %Inh for this compound: COCCNC(=O)c1ccc(-c2cc(C(=O)NC3CC3)cc(F)c2C)cc1 [GW868318]
Out: 21

----------
system: HIPK2; conditions: concentration: 1 μM, replicates: in singlicate; n = 1
measurement name: %Inh (%)
Kindly provide the numeric value in % only, without the unit symbol.

Known results for compounds:
Fc1ccc(-c2ncn(CCCN3CCOCC3)c2-c2cccnc2)cc1 | 0
O=c1cc(N2CCOCC2)nc2n(Cc3cccc(F)c3)ccn12 | 0
COc1ccc(S(=O)(=O)NC2CCN(c3cc(C)nc(Nc4cccc(C#N)c4)n3)CC2)cc1.O=C(O)C(F)(F)F | 0
Cc1c2ccc(N(C)c3ccnc(Nc4cccc(S(N)(=O)=O)c4)n3)cc2nn1Cc1ccccc1.Cl.Cl | 0
Nc1nccc(-c2c(-c3ccc(F)cc3)ncn2C2CCN(CC(F)(F)F)CC2)n1 | 57
Fc1ccc(-c2nn3c(OCC(F)(F)F)cccc3c2-c2ccncc2)cc1 | 0
CC(C)(C)n1cnc2c(N)ncnc21 | 16
COC(=O)Nc1nc2cc(Oc3ccc(NC(=O)Nc4cc(F)ccc4F)cc3)ccc2[nH]1.Cl | 0
N#Cc1c(N2CCOCC2)sc(-c2ccn[nH]2)c1-c1ccc(Cl)cc1 | 16
NS(=O)(=O)c1cccc(-c2ccc3nccc(-c4cccc(S(N)(=O)=O)c4)c3c2)c1 | 29

In: Given COc1ccc(Nc2nccc(N3CCC(NC(=O)Nc4cc(C)ccc4C)C3)n2)cc1 (stereo not drawn) , respond with its %Inh.
Out: 0

In: Give %Inh for O=C(NCCNc1ccnc(Nc2ccc(F)cc2)n1)Nc1ccccc1F
Out: 0

The measurements presented in this section are drawn from paper PMC5540273.
